Assignment: determine reported EC50 for the given compounds.
Test system: human α7 nAChR (Homo sapiens, UniProt P36544)
Construct: host or cells: GH4C1 cells (pituitary tumor, immortalized cell line)
Sequence (P36544 23-502): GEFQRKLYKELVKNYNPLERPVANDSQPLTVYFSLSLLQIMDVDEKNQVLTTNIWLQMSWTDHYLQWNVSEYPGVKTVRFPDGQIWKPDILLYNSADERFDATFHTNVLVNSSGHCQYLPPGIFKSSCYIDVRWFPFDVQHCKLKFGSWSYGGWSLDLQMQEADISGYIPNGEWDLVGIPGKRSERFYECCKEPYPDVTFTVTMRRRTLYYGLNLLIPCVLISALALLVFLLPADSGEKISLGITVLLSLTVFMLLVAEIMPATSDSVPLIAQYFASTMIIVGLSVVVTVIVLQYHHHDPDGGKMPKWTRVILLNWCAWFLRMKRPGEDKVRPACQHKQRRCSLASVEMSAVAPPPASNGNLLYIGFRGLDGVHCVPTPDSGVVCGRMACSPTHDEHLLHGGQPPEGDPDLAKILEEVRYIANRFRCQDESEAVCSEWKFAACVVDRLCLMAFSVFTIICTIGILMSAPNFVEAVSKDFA
Test description: α7 nAChR FLIPR (Fluorometric Imaging Plate Reader) Ca2+ assay, agonist EC50
Type: cell-based
Cond: GH4C1 cells stably transfected with human α7 nAChR; Fluo-4 Ca2+ fluorescence; Examples 194 to 205 tested as the HCl salt; read-out: pEC50 value (negative logarithm of the agonist EC50) (converted)

The compound identified as O=C(Nc1ccc(-c2nnc(NCCCN3CCCCC3)o2)c(Cl)c1)C1CCCCC1 [Example 163] registered its EC50 at ≤ 1000 nM

The compound identified as CCc1cc(NC(=O)c2ccccc2F)ccc1-c1nnc(NCCCCN(CC)CC)o1 [Example 171] registered its EC50 at ≤ 100 nM

The compound identified as O=C(Nc1ccc(-c2nnc(NCCCN3CCCC3)o2)c(Cl)c1)c1ccccc1F [Example 165] registered its EC50 at ≤ 1000 nM

The compound identified as CCN(CC)CCCNc1nnc(-c2ccc(NC(=O)c3cccc(F)c3)cc2OC)o1 [Example 203] registered its EC50 at ≤ 1000 nM

The compound identified as COc1cc(NC(=O)C2CCCCC2)ccc1-c1nnc(NCCCCN2CCOCC2)o1 [Example 80] registered its EC50 at ≤ 1000 nM

The compound identified as O=C(Nc1ccc(-c2nnc(NCCCCN3CCCC3)o2)c(C(F)(F)F)c1)c1ccccc1 [Example 92] registered its EC50 at ≤ 100 nM

The compound identified as O=C(Nc1ccc(-c2nnc(NCCCN3CCOCC3)o2)c(Cl)c1)c1ccccc1 [Example 101] registered its EC50 at ≤ 1000 nM

The compound identified as COc1cc(NC(=O)c2ccccc2)ccc1-c1nnc(NCCCN2CCOCC2)o1 [Example 72] registered its EC50 at ≤ 1000 nM

The compound identified as COc1cc(NC(=O)C2CCCCC2)ccc1-c1nnc(NCCCCN2CCCCC2)o1 [Example 83] registered its EC50 at ≤ 100 nM

The compound identified as O=C(Nc1ccc(-c2nnc(NCCCCN3CCCC3)o2)c(F)c1)c1ccccc1F [Example 48] registered its EC50 at ≤ 100 nM

The compound identified as CCN(CC)CCCNc1nnc(-c2ccc(NC(=O)c3ccccc3F)cc2C(F)(F)F)o1 [Example 88] registered its EC50 at ≤ 1000 nM

The compound identified as CCN(CC)CCCNc1nnc(-c2ccc(NC(=O)c3ccccc3)cc2OC)o1 [Example 74] registered its EC50 at ≤ 1000 nM

The compound identified as O=C(Nc1ccc(-c2nnc(NCCCCN3CCCC3)o2)c(C(F)(F)F)c1)C1CCCCC1 [Example 64] registered its EC50 at ≤ 1000 nM

The compound identified as Cc1ccc(C(=O)Nc2ccc(-c3nnc(NCCCN4CCCCC4)o3)cc2)cc1 [Example 181] registered its EC50 at ≤ 1000 nM

The compound identified as CCN(CC)CCCNc1nnc(-c2ccc(NC(=O)c3ccc(OC)cc3)cc2OC)o1 [Example 225] registered its EC50 at ≤ 1000 nM

The compound identified as O=C(Nc1ccc(-c2nnc(NCCCCN3CCCC3)o2)c(F)c1)C1CCCCC1 [Example 55] registered its EC50 at ≤ 100 nM

The compound identified as O=C(Nc1ccc(-c2nnc(NCCCN3CCCCC3)o2)cc1)c1ccccn1 [Example 17] registered its EC50 at ≤ 1000 nM
